- subject-of-test: Cyclin-dependent kinase 4 (Homo sapiens)
- Sequence (P11802 whole entry): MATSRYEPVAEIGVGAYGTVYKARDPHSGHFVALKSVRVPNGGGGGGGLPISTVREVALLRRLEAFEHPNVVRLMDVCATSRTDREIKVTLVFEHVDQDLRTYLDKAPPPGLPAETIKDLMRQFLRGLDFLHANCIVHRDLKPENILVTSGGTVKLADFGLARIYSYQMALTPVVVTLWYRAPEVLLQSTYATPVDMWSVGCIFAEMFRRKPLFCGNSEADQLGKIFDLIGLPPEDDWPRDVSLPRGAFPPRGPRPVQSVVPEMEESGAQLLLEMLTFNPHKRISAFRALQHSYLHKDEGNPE
pIC50: −log10 of the molar value.
property-label: pIC50

- item-smiles: "CC(=O)OCOC(=O)N1CCN(c2ccc(Nc3ncc4c(C)c(C(C)=O)c(=O)n(C5CCCC5)c4n3)nc2)CC1"
  subject-of-test: "Cyclin-dependent kinase 4 (Homo sapiens)"
  pIC50: 7.49
- item-smiles: "CC(=O)c1c(C)c2cnc(Nc3ccc(N4CCN(C(=O)CNCCN)CC4)cn3)nc2n(C2CCCC2)c1=O"
  subject-of-test: "Cyclin-dependent kinase 4 (Homo sapiens)"
  pIC50: 7.72
- item-smiles: "CCN1CCN(c2ccc(Nc3ncc4c(C)c(C(C)=O)c(=O)n(C5CCCC5)c4n3)nc2)CC1"
  subject-of-test: "Cyclin-dependent kinase 4 (Homo sapiens)"
  pIC50: 7.60
